# Assay Info: solvent given as SMILES
# Condition Description: in O
The threshold is inclusive: absorption maximum of exactly 400 nm counts as fulfilled; values below receive not fulfilled.

Hi, just wondering whether COc1ccc2c(c1)CCC1=C(c3ccccc3)C3=C(c4ccc5cccc(O)c5n4)c4c(-c5ccccc5)c5c(n4[B-](F)(F)[N+]3=C12)-c1ccc(OC)cc1CC5 shows absorption maximum of 400 nm or higher.
fulfilled

Hi, just wondering whether O=[N+]([O-])c1ccc(F)cc1C1CC(c2cccc3ccccc23)=NN1c1ccccc1 (stereo not given) shows absorption maximum of 400 nm or higher.
not fulfilled

Hi, just wondering whether CCCCn1c2ccc(/C=C(\C#N)c3ccc([N+](=O)[O-])cc3)cc2c2cc(Cn3c(-c4ccc5c(c4)c4ccccc4n5CCCC)nc4ccccc43)ccc21 shows absorption maximum of 400 nm or higher.
fulfilled

Hi, just wondering whether CC[N+]1(CC)CN2C(=N1)C(C(=O)O)=Cc1ccccc12 shows absorption maximum of 400 nm or higher.
not fulfilled

Hi, just wondering whether O=C(O)CCCCCn1c2ccccc2c(=O)c2cc(F)ccc21 shows absorption maximum of 400 nm or higher.
fulfilled

Hi, just wondering whether O=C([O-])c1c(Cl)c(Cl)c(Cl)c(Cl)c1-c1c2cc(Cl)c(=O)c(Cl)c-2oc2c(Cl)c(O)c(Cl)cc12 shows absorption maximum of 400 nm or higher.
fulfilled

Hi, just wondering whether O=C(O)CC[N+]1=c2cc3c(cc2CCC1)=Cc1c(c2cc4c5c(c2oc1=O)CCCN5CCC4)O3 shows absorption maximum of 400 nm or higher.
fulfilled

Hi, just wondering whether Cc1cc(O)c(C(C)C)cc1/N=C/c1ccc(O)cc1 shows absorption maximum of 400 nm or higher.
not fulfilled

Hi, just wondering whether CC(=O)OC[C@@H]1O[C@H](N2C=CC3=Nc4nc(C)[n+](C)cc4CN3C2=O)[C@@H](O)[C@H]1O shows absorption maximum of 400 nm or higher.
not fulfilled

Hi, just wondering whether CC1(C)C(/C=C/c2cc3ccc(O)cc3oc2=O)=[N+](CCCS(=O)(=O)[O-])c2ccc(S(=O)(=O)O)cc21 shows absorption maximum of 400 nm or higher.
fulfilled

Hi, just wondering whether CC[n+]1c(-c2ccccc2)c2cc(N)ccc2c2ccc(-n3cccc3)cc21 shows absorption maximum of 400 nm or higher.
fulfilled

Hi, just wondering whether Cn1c(=O)c(/N=N/c2cc(S(=O)(=O)O)ccc2S(=O)(=O)O)c(O)c2ccccc21 shows absorption maximum of 400 nm or higher.
fulfilled

Hi, just wondering whether O=Cc1ccc(-c2ccc(-c3nc4ccccc4s3)c(O)c2)o1 shows absorption maximum of 400 nm or higher.
not fulfilled

Hi, just wondering whether CN1/C(=C/C=C(/C=C/C2=[N+](C)c3ccccc3C2(C)C)c2ccccc2)C(C)(C)c2ccccc21 shows absorption maximum of 400 nm or higher.
fulfilled

Hi, just wondering whether O=[N+]([O-])c1ccco1 shows absorption maximum of 400 nm or higher.
not fulfilled

Hi, just wondering whether COc1ccc2c(c1)c(=O)c1ccccc1n2CCCCCC(=O)O shows absorption maximum of 400 nm or higher.
fulfilled

Hi, just wondering whether CC1(C)C2=[N+](CCCCCC(=O)NCCNC(=O)CCCCCN3/C(=C/C=C/C=C/C=C/2)C(C)(C)c2cc(S(=O)(=O)[O-])ccc23)c2ccc(S(=O)(=O)[O-])cc21 shows absorption maximum of 400 nm or higher.
fulfilled

Hi, just wondering whether Fc1ccc(-c2nc3n(c2-c2ccncc2)CCS3)cc1 shows absorption maximum of 400 nm or higher.
not fulfilled

Hi, just wondering whether CC/[NH+]=c1\cc2oc3cc(NCCC(=O)NCC(=O)OC)c4ccccc4c3nc-2cc1C shows absorption maximum of 400 nm or higher.
fulfilled

Hi, just wondering whether O=C(O)CCCCCn1c2ccccc2c(=O)c2cc(Br)ccc21 shows absorption maximum of 400 nm or higher.
fulfilled

Hi, just wondering whether Nc1nc2ccc(F)cc2[n+]([O-])n1 shows absorption maximum of 400 nm or higher.
fulfilled

Hi, just wondering whether O=S(=O)([O-])c1ccc(O)c2ccccc12 shows absorption maximum of 400 nm or higher.
not fulfilled

Hi, just wondering whether COc1cc(N(CC(=O)[O-])CC(=O)[O-])c2nc(COc3cc(C)ccc3N(CC(=O)[O-])CC(=O)[O-])ccc2c1 shows absorption maximum of 400 nm or higher.
not fulfilled

Hi, just wondering whether CC(C)(C)c1cccc2c(O)cccc12 shows absorption maximum of 400 nm or higher.
not fulfilled

Hi, just wondering whether COc1ccc2c(=O)c3c([nH]c2c1)-c1ccccc1NC3(C)C shows absorption maximum of 400 nm or higher.
not fulfilled

Hi, just wondering whether [NH3+]c1ccc2c(c1)Cc1ccccc1-2 shows absorption maximum of 400 nm or higher.
not fulfilled

Hi, just wondering whether Nc1ncc2nc[nH]c2n1 shows absorption maximum of 400 nm or higher.
not fulfilled

Hi, just wondering whether CN1/C(=C/C=C(/C=C/c2sc3ccccc3[n+]2C)c2ccc(C(F)(F)F)cc2)Sc2ccccc21 shows absorption maximum of 400 nm or higher.
fulfilled

Hi, just wondering whether N#CC(C#N)=Cc1ccc(-c2ccc(O)c(-c3nc4ccccc4s3)c2)s1 shows absorption maximum of 400 nm or higher.
fulfilled

Hi, just wondering whether N#C[Se]CCCCCOc1ccc2ccc(=O)oc2c1 shows absorption maximum of 400 nm or higher.
not fulfilled

----------
Provide the recorded absorption maximum for the entries that follow.
# Assay Info: solvent given as SMILES
# Condition Description: in CCO
Numbers only here, please. The scale is nm.

Item: COc1ccc(-c2csc(/C(C#N)=C/c3ccc(C#N)cc3)n2)cc1 | absorption maximum: 395

Item: O=C1c2ccc3c4ccc5c6c(ccc(c7ccc(c2c37)C(=O)N1c1ccncc1)c64)C(=O)N(c1ccncc1)C5=O | absorption maximum: 524

Item: C1=C(c2ccc(-c3cccs3)s2)CCC1 | absorption maximum: 341

Item: Cc1c(COC(=O)c2ccccc2Br)n2c(OCC(=O)c3ccccc3Br)c(C)c(=O)n2c1=O | absorption maximum: 382

Item: CCOc1cc2c(cc1/C=C/C1=CC(=C(C#N)C#N)CC(C)(C)C1)c1ccccc1n2CC | absorption maximum: 480

Item: CC/[NH+]=c1\cc2oc3cc(NCCC(=O)NCC(=O)OC)c4ccccc4c3nc-2cc1C | absorption maximum: 600

Item: COc1ccc2c(-c3nc(-c4ccccc4Cl)no3)cc(=O)oc2c1 | absorption maximum: 354

Item: CN1c2cc3nc4cc(F)c(F)cc4nc3cc2N(C)C1(C)C | absorption maximum: 457

Item: CN1C(C(=O)Nc2ccccn2)=C(O)c2sccc2S1(=O)=O | absorption maximum: 351

Item: CCCCCCCCCCCCN1C(=O)c2cccc3c(N(Cc4ccccn4)Cc4ccccn4)c4ccccc4c(c23)C1=O | absorption maximum: 488

Item: CN(C)c1ccc2cc3ccc(=[N+](C)C)cc-3oc2c1 | absorption maximum: 547

Item: CCN(CC)c1ccc2cc3c([o+]c2c1)/C(=C/Nc1ccccc1)CCC3 | absorption maximum: 605

Item: COC(=O)C(C)NC(=O)CCNc1cccc2ccccc12 (stereo not drawn) | absorption maximum: 331

----------
# Assay Info: solvent given as SMILES
# Condition Description: in CC#N
The threshold is inclusive: absorption maximum of exactly 400 nm counts as 1.0; values below receive 0.0.

Hi, just wondering whether Cc1ccc(/C=C/c2ccccc2-[n+]2noc([O-])c2-c2ccccc2)cc1 shows absorption maximum of 400 nm or higher.
0.0

Hi, just wondering whether N#Cc1nn(-c2ccccc2C(F)(F)F)nc1N1CCCC1 shows absorption maximum of 400 nm or higher.
0.0

Hi, just wondering whether Nc1cccc2ncccc12 shows absorption maximum of 400 nm or higher.
0.0

Hi, just wondering whether Cc1cc(O)c(C(C)C)cc1/N=C/c1ccc(C(F)(F)F)cc1 shows absorption maximum of 400 nm or higher.
0.0

Hi, just wondering whether Oc1ccc2ccccc2c1C1Nc2cccc3cccc(c23)N1 shows absorption maximum of 400 nm or higher.
0.0

Hi, just wondering whether CCN(CC)c1ccc(/C=N/C2CCCCC2/N=C/c2ccc(N(CC)CC)cc2O)c(O)c1 (stereo not drawn) shows absorption maximum of 400 nm or higher.
0.0

Hi, just wondering whether CC(C)(C)c1cc(C[n+]2ccc(-c3cc[n+](Cc4cc(C(C)(C)C)cc(C(C)(C)C)c4)cc3)cc2)cc(C(C)(C)C)c1 shows absorption maximum of 400 nm or higher.
0.0

Hi, just wondering whether CN(C)c1ccc(/C=C/c2cnc3ccccc3n2)cc1 shows absorption maximum of 400 nm or higher.
1.0

Hi, just wondering whether C#CCn1c2ccccc2c2cc(/C=C/c3cc(C)c4n3[B-](F)(F)[N+]3=C(C)C=C(C)C3=C4c3ccc(I)cc3)ccc21 shows absorption maximum of 400 nm or higher.
1.0

Hi, just wondering whether CCN(CC)c1ccc2c(-c3ccc(S(=O)(=O)O)cc3S(=O)(=O)[O-])c3ccc(=[N+](CC)CC)cc-3oc2c1 shows absorption maximum of 400 nm or higher.
1.0

Hi, just wondering whether COc1ccc(-c2csc(/C(C#N)=C\Nc3ccc(C#N)cc3)n2)cc1 shows absorption maximum of 400 nm or higher.
0.0

Origin of the recorded values: the Deep4Chem optical property database
